assay: Displacement of UDP-[14C]GlcNAc from TarO (unknown origin) after 2.5 hrs by scintillation counting analysis
measurement-label: log10(IC50) (log10 of the value in µM)

[[record]]
compound = "Clc1ccc2c(c1)CCN(Cc1ccccc1Cl)C2"
endpoint_value = 2.28

[[record]]
compound = "Clc1ccccc1CN1CCc2sccc2C1 [TICLOPIDINE]"
endpoint_value = 2.18

[[record]]
compound = "FC(F)(F)c1ccccc1CN1CCc2ccccc2C1"
endpoint_value = 2.54

[[record]]
compound = "Clc1ccccc1CN1CCCCC1"
endpoint_value = 3.04

[[record]]
compound = "O=C(O)C(c1ccccc1Cl)N1CCc2ccccc2C1 (racemic)"
endpoint_value = 2.64

[[record]]
compound = "COC(=O)C(c1ccccc1Cl)N1CCc2ccccc2C1 (racemic)"
endpoint_value = 2.28

[[record]]
compound = "c1ccc(CN2CCc3ccccc3C2)cc1"
endpoint_value = 2.43

[[record]]
compound = "Clc1ccccc1CN1CCc2ccccc2C1"
endpoint_value = 2.72

[[record]]
compound = "c1cc2c(s1)CCNC2"
endpoint_value = 3.63

[[record]]
compound = "Clc1cccc(CN2CCc3ccccc3C2)c1"
endpoint_value = 2.43

[[record]]
compound = "Clc1ccccc1CC1CCc2ccccc2N1 (centres undefined)"
endpoint_value = 2.43

[[record]]
compound = "c1ccc2c(c1)CCN(Cc1ccc3ccccc3c1)C2"
endpoint_value = 2.34

[[record]]
compound = "COC(=O)[C@H](c1ccccc1Cl)N1CCc2sccc2C1 [CLOPIDOGREL]"
endpoint_value = 2.18


The origin of these recorded values is ChEMBL document CHEMBL3112416.
